# merged literature set: IC50 with Histone deacetylase 9 (Homo sapiens, UniProt Q9UKV0)
# Sequence (Q9UKV0 whole entry): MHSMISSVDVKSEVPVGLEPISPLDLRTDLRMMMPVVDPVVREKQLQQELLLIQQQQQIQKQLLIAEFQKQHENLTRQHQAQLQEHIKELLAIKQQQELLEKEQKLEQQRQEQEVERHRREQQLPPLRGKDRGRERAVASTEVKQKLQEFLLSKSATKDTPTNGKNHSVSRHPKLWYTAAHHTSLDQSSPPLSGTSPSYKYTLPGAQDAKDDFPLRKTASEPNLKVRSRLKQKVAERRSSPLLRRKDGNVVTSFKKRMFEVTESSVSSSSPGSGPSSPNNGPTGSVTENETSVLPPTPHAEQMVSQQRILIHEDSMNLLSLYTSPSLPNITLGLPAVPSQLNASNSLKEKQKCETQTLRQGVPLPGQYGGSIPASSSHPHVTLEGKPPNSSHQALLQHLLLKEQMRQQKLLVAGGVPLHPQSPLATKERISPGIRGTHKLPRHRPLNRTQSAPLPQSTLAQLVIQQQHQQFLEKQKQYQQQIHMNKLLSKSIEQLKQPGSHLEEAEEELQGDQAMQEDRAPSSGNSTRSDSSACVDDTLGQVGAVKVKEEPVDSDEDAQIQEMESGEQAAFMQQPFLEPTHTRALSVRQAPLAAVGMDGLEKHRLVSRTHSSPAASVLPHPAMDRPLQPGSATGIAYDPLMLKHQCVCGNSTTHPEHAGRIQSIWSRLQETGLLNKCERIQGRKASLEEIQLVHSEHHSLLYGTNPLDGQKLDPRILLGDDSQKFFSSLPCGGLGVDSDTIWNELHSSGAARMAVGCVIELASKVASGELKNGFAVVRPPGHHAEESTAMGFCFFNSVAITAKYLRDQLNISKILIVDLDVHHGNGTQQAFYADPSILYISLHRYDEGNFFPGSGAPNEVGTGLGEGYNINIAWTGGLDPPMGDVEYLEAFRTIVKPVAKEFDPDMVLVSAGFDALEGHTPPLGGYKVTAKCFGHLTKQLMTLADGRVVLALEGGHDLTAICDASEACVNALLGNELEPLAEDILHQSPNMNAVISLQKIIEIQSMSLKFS

>>> df
                                molecule  data_value
0      O=C(NO)c1cccc(C(=O)NCCc2ccccc2)c1     > 33 µM
1         O=C(/C=C/c1ccc(C(F)(F)F)cc1)NO    > 100 µM
2  O=C(NO)c1ccc(CC(=O)N(CCO)c2ccccc2)cc1     > 10 µM

Known value: Histone deacetylase 9 (Homo sapiens, UniProt Q9UKV0) IC50 of the molecule CCCCN(Cc1ccc(C(=O)NO)cc1)C(=O)Nc1ccc(OCCCCCn2cc(CNc3cccc4c3C(=O)N(C3CCC(=O)NC3=O)C4=O)nn2)cc1 (centres undefined) equals 0.3 to 30 µM
